- assay procedure: qHTS of pediatric cancer cell lines to identify multiple opportunities for drug repurposing: Primary screen for control Hh wild type fibroblast cells (AID 1347106); further: nearly all actives have a fitted effect of over 55% in size
- experimental parameters: Hh wild-type fibroblast viability, CellTiter-Glo luminescence, 48 h; series mostly up to 46 µM
Results filed as inconclusive are left out. Activity calls are given as the source filed them. The call rests on the fitted dose curve; in most records, active means well fitted cell-killing curve with a large enough effect; inconclusive means small, poorly fitted or top-dose-only effect; inactive means flat fitted curve, though single readings scatter.
Classes used: active, inactive

{"columns": ["molecule", "cat"],
 "data": [
  ["COc1cc(Nc2ncc(F)c(Nc3ccc4c(n3)N(COP(=O)(O)O)C(=O)C(C)(C)O4)n2)cc(OC)c1OC", "inactive"],
  ["CCc1cc2c(cc1N1CCC(N3CCOCC3)CC1)C(C)(C)c1[nH]c3cc(C#N)ccc3c1C2=O", "inactive"],
  ["C=C1C(=CC=C2CCC[C@]3(C)[C@@H]([C@H](C)C=C[C@H](C)C(C)C)CC[C@@H]23)C[C@@H](O)C[C@@H]1O", "inactive"],
  ["CC(C)c1nn(-c2c(Cl)cccc2Cl)c2nc(Cc3ccc(OCCO)cc3)[nH]c(=O)c12", "inactive"],
  ["CCOc1ccccc1OCCNC(C)Cc1ccc(OC)c(S(N)(=O)=O)c1 (centres undefined)", "inactive"],
  ["O=C(O)c1ccc2cc(-c3ccc(O)c(C45CC6CC(CC(C6)C4)C5)c3)ccc2c1", "inactive"],
  ["CC1=C(CO)C(=O)O[C@@H]([C@@H](C)[C@H]2CC[C@H]3[C@@H]4C[C@H]5O[C@]56[C@@H](O)C=CC(=O)[C@]6(C)[C@@H]4CC[C@]23C)C1", "inactive"],
  ["Nc1ncnc2c1c(-c1cnc3[nH]ccc3c1)nn2C1CCCC1", "active"],
  ["Cc1ccc(C(=O)Nc2cccc(C(F)(F)F)c2)cc1-c1ccc2nc(NCCN3CCOCC3)ncc2c1", "active"],
  ["CC(NCc1ccc2c(c1)nc(NC(=O)c1ccc(-c3cn[nH]c3)s1)n2CC(C)(C)O)C(C)(C)C (centres undefined)", "active"],
  ["COc1ccc2c(c1)CC[C@@H](CN(C)CC(=O)O)[C@H]2c1ccccc1", "inactive"],
  ["Nc1ccc(S(=O)(=O)Nc2ncccn2)cc1", "inactive"],
  ["NCC(=O)Nc1ccc(-n2nc(C(F)(F)F)cc2-c2ccc3c(ccc4ccccc43)c2)cc1", "inactive"],
  ["CN(c1ncccc1CNc1nc(Nc2ccc3c(c2)CC(=O)N3)ncc1C(F)(F)F)S(C)(=O)=O", "active"],
  ["CN(C)CC(C)(C)CNc1nn2c(-c3ccccc3)nnc2cc1C1CCC1", "inactive"],
  ["COc1cc2c(Oc3ccc4[nH]c(C)cc4c3F)ncnc2cc1OCCCN1CCCC1", "active"],
  ["CC[C@H](CO)Nc1nc(NCc2ccccc2)c2ncn(C(C)C)c2n1", "inactive"],
  ["Cc1cn(-c2cc(NC(=O)c3ccc(C)c(Nc4nccc(-c5cccnc5)n4)c3)cc(C(F)(F)F)c2)cn1", "inactive"],
  ["CC(C)(C)c1cc(C(C)(C)C)c(NC(=O)c2c[nH]c3ccccc3c2=O)cc1O", "inactive"]
]}
